# Tested on: MCF7 (human breast cancer) cell line
# method: Sulforhodamine-B (SRB) cytotoxicity assay
# Assay type: cell-based
# condition details: SRB assay, MCF7 cell line, read-out: IC50 MCF7
pIC50: −log10 of the molar value.
quantity kind: pIC50

{"smiles": "O=C(CSc1nc2ccccc2n1C(=O)c1ccccc1)Nc1ccccc1Br", "quantity kind": "pIC50", "measurement qualifier": "=", "recorded number": 4.25}
{"smiles": "O=C(CSc1nc2ccccc2n1C(=O)c1ccccc1)Nc1ccc(Cl)cc1[N+](=O)[O-]", "quantity kind": "pIC50", "measurement qualifier": "=", "recorded number": 3.79}
{"smiles": "Cc1ccccc1NC(=O)CSc1nc2ccccc2n1C(=O)c1ccccc1", "quantity kind": "pIC50", "measurement qualifier": "=", "recorded number": 3.90}
{"smiles": "O=C(CSc1nc2ccccc2n1C(=O)c1ccccc1)Nc1ccc(Br)cc1", "quantity kind": "pIC50", "measurement qualifier": "<", "recorded number": 3.67}
{"smiles": "COc1cccc(NC(=O)CSc2nc3ccccc3n2C(=O)c2ccccc2)c1", "quantity kind": "pIC50", "measurement qualifier": "=", "recorded number": 4.02}
{"smiles": "O=C(CSc1nc2ccccc2n1C(=O)c1ccccc1)Nc1cccc(Cl)c1", "quantity kind": "pIC50", "measurement qualifier": "=", "recorded number": 4.08}

* * *

# experimental target: mycobacterial isocitrate lyase (Mycobacterium tuberculosis)
# method: Mycobacterial isocitrate lyase (ICL) assay
# Type: biochemical, M. tuberculosis H37Rv
# condition details: read-out: Percent inhibition of enzyme, M. ICL activity
Note to self: values exactly at 60% are YES. So inhibition at 10 µM at or above 60% is YES, below is NO.

{"compound": "Cc1ccc(NC(=O)CSc2nc3ccccc3n2C(=O)c2ccccc2)cc1", "category": "NO"}
{"compound": "O=C(CSc1nc2ccccc2n1C(=O)c1ccccc1)Nc1ccccc1", "category": "YES"}
{"compound": "COc1ccccc1NC(=O)CSc1nc2ccccc2n1C(=O)c1ccccc1", "category": "NO"}
{"compound": "Cc1cccc(C)c1NC(=O)CSc1nc2ccccc2n1C(=O)c1ccccc1", "category": "NO"}
{"compound": "[H]/N=C(/N)N[C@H]1[C@H](O)[C@@H](O)[C@H](O[C@@H]2O[C@@H](C)[C@](O)(C=O)[C@H]2O[C@@H]2O[C@@H](CO)[C@H](O)[C@@H](O)[C@@H]2NC)[C@@H](N/C(N)=N\\[H])[C@@H]1O [Streptomycin sulphate, streptomycin sulphate, reference compound]", "category": "YES"}

* * *

Reported values of IC50 for individual entries
# Tested on: HCT116 (human colorectal) cell line
# method: Sulforhodamine-B (SRB) cytotoxicity assay
# Format: cell-based
# condition details: HCT-116, SRB assay, HCT116 cell line, read-out: IC50 HCT116

{"compound": "O=C(CSc1nc2ccccc2n1C(=O)c1ccccc1)Nc1cccc(Cl)c1 [Compound 5]", "IC50": "131 µM"}
{"compound": "O=C(CSc1nc2ccccc2n1C(=O)c1ccccc1)Nc1ccc(Cl)cc1[N+](=O)[O-] [Compound 11]", "IC50": "23.6 µM"}
{"compound": "O=C(CSc1nc2ccccc2n1C(=O)c1ccccc1)Nc1ccccc1Br [Compound 7]", "IC50": "96.5 µM"}
{"compound": "Cc1ccccc1NC(=O)CSc1nc2ccccc2n1C(=O)c1ccccc1 [Compound 16]", "IC50": "87.2 µM"}
{"compound": "COc1cccc(NC(=O)CSc2nc3ccccc3n2C(=O)c2ccccc2)c1 [Compound 14]", "IC50": "95.8 µM"}
{"compound": "O=c1[nH]cc(F)c(=O)[nH]1 [Compound 5-FU, 5-fluorouracil, reference compound]", "IC50": "12.5 µM"}
{"compound": "O=C(CSc1nc2ccccc2n1C(=O)c1ccccc1)Nc1ccc(Br)cc1 [Compound 9]", "IC50": "64.3 µM"}

* * *

# experimental target: mycobacterial isocitrate lyase (Mycobacterium tuberculosis, UniProt P9WKK7)
# Sequence (P9WKK7 whole entry): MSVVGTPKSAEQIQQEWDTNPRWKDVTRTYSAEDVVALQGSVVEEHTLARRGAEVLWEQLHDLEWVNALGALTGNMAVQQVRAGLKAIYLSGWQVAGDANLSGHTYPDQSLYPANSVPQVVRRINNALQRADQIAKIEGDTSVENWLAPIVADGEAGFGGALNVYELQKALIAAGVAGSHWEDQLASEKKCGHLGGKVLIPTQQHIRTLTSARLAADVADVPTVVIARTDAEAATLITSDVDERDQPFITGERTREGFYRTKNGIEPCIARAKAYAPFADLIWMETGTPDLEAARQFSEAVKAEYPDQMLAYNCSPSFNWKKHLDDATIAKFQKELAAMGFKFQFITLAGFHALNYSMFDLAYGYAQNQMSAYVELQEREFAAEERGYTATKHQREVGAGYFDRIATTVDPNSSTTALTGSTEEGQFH
# method: Mycobacterial isocitrate lyase (ICL) assay
# Assay type: biochemical, M. tuberculosis H37Rv
# condition details: read-out: Percent inhibition of enzyme, M. ICL activity
Measured inhibition at 10 µM by item

{"smiles": "O=C(CSc1nc2ccccc2n1C(=O)c1ccccc1)Nc1ccccc1F", "experimental target": "mycobacterial isocitrate lyase (Mycobacterium tuberculosis, UniProt P9WKK7)", "units": "%", "inhibition at 10 µM": 58.8}
{"smiles": "O=C(CSc1nc2ccccc2n1C(=O)c1ccccc1)Nc1ccccc1Cl", "experimental target": "mycobacterial isocitrate lyase (Mycobacterium tuberculosis, UniProt P9WKK7)", "units": "%", "inhibition at 10 µM": 48.5}
{"smiles": "O=C(CSc1nc2ccccc2n1C(=O)c1ccccc1)Nc1ccc(F)cc1", "experimental target": "mycobacterial isocitrate lyase (Mycobacterium tuberculosis, UniProt P9WKK7)", "units": "%", "inhibition at 10 µM": 52.6}
{"smiles": "O=C(CSc1nc2ccccc2n1C(=O)c1ccccc1)Nc1ccc(Cl)cc1", "experimental target": "mycobacterial isocitrate lyase (Mycobacterium tuberculosis, UniProt P9WKK7)", "units": "%", "inhibition at 10 µM": 61.6}
{"smiles": "O=C(CSc1nc2ccccc2n1C(=O)c1ccccc1)Nc1cc(Cl)ccc1Cl", "experimental target": "mycobacterial isocitrate lyase (Mycobacterium tuberculosis, UniProt P9WKK7)", "units": "%", "inhibition at 10 µM": 56.8}
{"smiles": "COc1ccc(NC(=O)CSc2nc3ccccc3n2C(=O)c2ccccc2)cc1", "experimental target": "mycobacterial isocitrate lyase (Mycobacterium tuberculosis, UniProt P9WKK7)", "units": "%", "inhibition at 10 µM": 64.6}

* * *

# Test system: Gram positive as well as Gram negative bacterial species
# method: Tube dilution MIC, bacteria overall
# Format: cell-based
quantity kind: MIC against Gram positive as well as Gram negative bacterial species (µM/ml)

{"smiles": "O=C(CSc1nc2ccccc2n1C(=O)c1ccccc1)Nc1ccccc1Br", "units": "µM/ml", "recorded number": 0.027}
{"smiles": "O=C(CSc1nc2ccccc2n1C(=O)c1ccccc1)Nc1cccc(Br)c1", "units": "µM/ml", "recorded number": 0.027}
{"smiles": "O=C(CSc1nc2ccccc2n1C(=O)c1ccccc1)Nc1ccc(Br)cc1", "units": "µM/ml", "recorded number": 0.027}
{"smiles": "O=C(CSc1nc2ccccc2n1C(=O)c1ccccc1)Nc1ccc(Cl)cc1[N+](=O)[O-]", "units": "µM/ml", "recorded number": 0.027}

* * *

# MIC annotations
# System: C. albicans
# method: microbe, parasite or virus in culture
# condition details: Candida albicans, 48 h, read-out: MIC C. albicans
quantity kind: MIC (µM)

{"smiles": "COc1ccccc1NC(=O)CSc1nc2ccccc2n1C(=O)c1ccccc1", "quantity kind": "MIC", "recorded number": 15}
{"smiles": "O=C(CSc1nc2ccccc2n1C(=O)c1ccccc1)Nc1cc(Cl)ccc1Cl", "quantity kind": "MIC", "recorded number": 14}
{"smiles": "Cc1ccc(NC(=O)CSc2nc3ccccc3n2C(=O)c2ccccc2)cc1", "quantity kind": "MIC", "recorded number": 16}

* * *

# System: C. albicans
# method: MFC by subculturing
# Format: cell-based
# condition details: Candida albicans; read-out: MFC C. albicans
MFC by entry:
quantity kind: MFC (µg/mL)

{"compound": "Cc1ccc(NC(=O)CSc2nc3ccccc3n2C(=O)c2ccccc2)c(C)c1 [Compound 20]", "experimental target": "C. albicans", "recorded number": 25}
{"compound": "O=C(CSc1nc2ccccc2n1C(=O)c1ccccc1)Nc1ccccc1Br [Compound 7]", "experimental target": "C. albicans", "recorded number": 50}
{"compound": "O=C(CSc1nc2ccccc2n1C(=O)c1ccccc1)Nc1cccc(Cl)c1 [Compound 5]", "experimental target": "C. albicans", "recorded number": 50}

* * *

# Test system: C. albicans
# method: MFC by subculturing
# Assay type: cell-based
# condition details: Candida albicans; read-out: MFC C. albicans
Below: a set of entries, each annotated with reported MFC.
quantity kind: MFC (µg/mL)

{"smiles": "O=C(CSc1nc2ccccc2n1C(=O)c1ccccc1)Nc1ccc(Cl)cc1[N+](=O)[O-]", "quantity kind": "MFC", "units": "µg/mL", "measurement qualifier": ">", "recorded number": 50}
{"smiles": "Cc1cccc(NC(=O)CSc2nc3ccccc3n2C(=O)c2ccccc2)c1", "quantity kind": "MFC", "units": "µg/mL", "measurement qualifier": "=", "recorded number": 50}
{"smiles": "COc1cccc(NC(=O)CSc2nc3ccccc3n2C(=O)c2ccccc2)c1", "quantity kind": "MFC", "units": "µg/mL", "measurement qualifier": "=", "recorded number": 50}
{"smiles": "O=C(CSc1nc2ccccc2n1C(=O)c1ccccc1)Nc1ccc(Br)cc1", "quantity kind": "MFC", "units": "µg/mL", "measurement qualifier": "=", "recorded number": 50}
{"smiles": "Cc1ccccc1NC(=O)CSc1nc2ccccc2n1C(=O)c1ccccc1", "quantity kind": "MFC", "units": "µg/mL", "measurement qualifier": "=", "recorded number": 25}
